Reference source: patent US20260116991A1

Target: biotinylated labeled human GPC3 protein (produced in-house) (human, UniProt P51654 25-559, limits assumed, biotinylated (Dojindo, Cat. No. LK03); sites not stated)
Assay: ELISA, biotinylated human GPC3 protein
# OD450 at 0.02 nM per entry
Give the number; OD450 is assumed, so skip it.

Past entries and their recorded results:
[
  {
    "Binder": "hAb003LH3L1a (antibody, human IgG1, V domains shown, Humanized F2.154.1; VH H3 + VL L1a; expressed as human IgG1) VH: EVQLVQSGAEVKKPGSSVKVSCKASGYRFTDYEMHWVRQAPGQGLEWMGTIDPETGNTAYTQKFMDRVTLTADKSTSTAYMELSSLRSEDTAVYYCTRGYSFTYWGQGTLVTVSS VL: DIVMTQTPLSLPVTPGEPASISCRSSQNIVHSDGNTYLQWYLQKPGQSPQLLIFKVSNRFSGVPDRFSGSGSGTDFTLKISRVEAEDVGVYYCFQGSHVPFTFGQGTKLEIK",
    "Value unit": "OD450",
    "OD450 at 0.02 nM": 0.423
  },
  {
    "Binder": "hAb007LH3L1 (antibody, human IgG1, V domains shown, Humanized F3.81.19; VH H3 + VL L1; expressed as human IgG1) VH: EVQLVQSGAEVKKPGSSVKVSCKASGYTFTDYEMHWVRQAPGQGLEWMGTIDPETGNTAYNQKFKGRVTLTADKSTSTAYMELSSLRSEDTAVYYCTRPYSLTYWGQGTLVTVSS VL: DIVMTQTPLSLPVTPGEPASISCRSSQSFVHSNGDTYLQWYLQKPGQSPQLLIYKVSNRFSGVPDRFSGSGSGTDFTLKISRVEAEDVGVYYCFQGSHVPYTFGQGTKLEIK",
    "Value unit": "OD450",
    "OD450 at 0.02 nM": 0.323
  },
  {
    "Binder": "hAb005LH2L1 (antibody, human IgG1, V domains shown, Humanized F3.54.12; VH H2 + VL L1; expressed as human IgG1) VH: EVQLVQSGAEVKKPGASVKVSCKASGYTFTDYEMHWVRQAPGQGLEWMGAIDPETGNTAYIQKFKGRVTLTTDKSTSTAYMELRSLRSDDTAVYYCTRFYSYSHWGQGTTVTVSS VL: DIVMTQTPLSLPVTPGEPASISCRSSQSLVHSNGNTYLHWYLQKPGQSPQLLIYKVSNRFSGVPDRFSGSGSGTDFTLKISRVEAEDVGVYYCSQNTHVPPTFGGGTKVEIK",
    "Value unit": "OD450",
    "OD450 at 0.02 nM": 0.464
  }
]

Find the recorded OD450 at 0.02 nM belonging to hAb007LH2L1 (antibody, human IgG1, V domains shown, Humanized F3.81.19; VH H2 + VL L1; expressed as human IgG1) VH: EVQLVQSGAEVKKPGSSVKVSCKASGYTFTDYEMHWVRQAPGQGLEWMGTIDPETGNTAYNQKFKGRVTITADKSTSTAYMELSSLRSEDTAVYYCTRPYSLTYWGQGTLVTVSS VL: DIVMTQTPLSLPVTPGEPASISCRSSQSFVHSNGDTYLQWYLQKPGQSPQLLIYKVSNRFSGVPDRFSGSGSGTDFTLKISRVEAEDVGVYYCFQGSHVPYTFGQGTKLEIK and report it.
0.654

Reported OD450 at 0.02 nM, binder hAb003LH2L1 (antibody, human IgG1, V domains shown, Humanized F2.154.1; VH H2 + VL L1; expressed as human IgG1) VH: EVQLVQSGAEVKKPGSSVKVSCKASGYRFTDYEMHWVRQAPGQGLEWMGTIDPETGNTAYTQKFMDRVTITADKSTSTAYMELSSLRSEDTAVYYCTRGYSFTYWGQGTLVTVSS VL: DIVMTQTPLSLPVTPGEPASISCRSSQNIVHSNGNTYLQWYLQKPGQSPQLLIFKVSNRFSGVPDRFSGSGSGTDFTLKISRVEAEDVGVYYCFQGSHVPFTFGQGTKLEIK : ____
1.03
